Values were extracted from patent US7056947B2.

# tgt: caspase-3 (Homo sapiens)
# Construct: made in house; host or cells: E. coli
# Sequence (P42574 29-175 limits assumed): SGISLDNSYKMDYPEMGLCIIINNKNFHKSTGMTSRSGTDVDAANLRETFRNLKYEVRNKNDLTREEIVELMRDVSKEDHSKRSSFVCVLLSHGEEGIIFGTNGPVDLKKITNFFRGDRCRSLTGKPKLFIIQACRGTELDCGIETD
# Sequence (P42574 176-277 limits assumed): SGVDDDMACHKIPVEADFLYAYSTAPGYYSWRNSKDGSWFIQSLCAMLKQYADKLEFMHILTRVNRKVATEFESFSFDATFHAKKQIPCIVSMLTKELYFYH
# protocol_text: Caspase-3 progress curve assay
# Format: biochemical
# assay_setup: substrate Z-DEVD-AFC; NI = no inhibition
readout_name: k2 caspase-3 (M⁻¹ s⁻¹)
The reply should contain only the number, in M⁻¹ s⁻¹.

CC[C@H](C)[C@H](NC(=O)OCc1ccccc1)C(=O)N[C@@H](CCC(=O)O)C(=O)N[C@H](C(=O)NN(CC(=O)O)C(=O)[C@@H]1O[C@H]1C(=O)NCc1ccccc1)[C@@H](C)O [27g]    6475
CC(C)[C@H](NC(=O)CCc1ccccc1)C(=O)N[C@@H](C)C(=O)NN(CC(=O)O)C(=O)[C@@H]1O[C@H]1C(=O)OCc1ccccc1 (relative stereo) [23d (trans)]    680
CCOC(=O)[C@H]1O[C@@H]1C(=O)N(CC(=O)O)NC(=O)[C@@H](NC(=O)[C@H](CCC(=O)O)NC(=O)[C@H](CC(=O)O)NC(=O)OCc1ccccc1)C(C)C [25c (S,S)]    1074440
CCOC(=O)[C@H]1O[C@@H]1C(=O)N(CC(=O)O)NC(=O)[C@H](C)NC(=O)[C@@H](NC(=O)CCc1ccccc1)C(C)C [23c (S,S)]    1040
CCOC(=O)[C@H]1O[C@@H]1C(=O)N(CC(=O)O)NC(=O)[C@@H](NC(=O)[C@H](CCC(=O)O)NC(=O)OCc1ccccc1)C(C)C [24c]    50500
CC(C)C[C@H](NC(=O)OCc1ccccc1)C(=O)N[C@@H](CCC(=O)O)C(=O)N[C@H](C(=O)NN(CC(=O)O)C(=O)[C@H]1O[C@@H]1C(=O)OCc1ccccc1)[C@@H](C)O [26d]    3520

Task item: Item under review: CC[C@H](C)[C@H](NC(=O)OCc1ccccc1)C(=O)N[C@@H](CCC(=O)O)C(=O)N[C@H](C(=O)NN(CC(=O)O)C(=O)[C@@H]1O[C@H]1C(=O)OCc1ccccc1)[C@@H](C)O [27d (R,R)] . Reported k2 caspase-3?
Reply: 3115

Task item: Also check `CC[C@H](C)[C@H](NC(=O)OCc1ccccc1)C(=O)N[C@@H](CCC(=O)O)C(=O)N[C@H](C(=O)NN(CC(=O)O)C(=O)[C@H]1O[C@@H]1C(=O)N(Cc1ccccc1)Cc1ccccc1)[C@@H](C)O`
Reply: 3550

Task item: Also check CC(C)[C@H](NC(=O)CCc1ccccc1)C(=O)N[C@@H](C)C(=O)NN(CC(=O)O)C(=O)[C@H]1O[C@@H]1C(=O)NCC(O)c1ccccc1 (stereo partly drawn) [23i (S,S)]
Reply: 510

Task item: Also check CC(C)[C@H](NC(=O)CCc1ccccc1)C(=O)N[C@@H](C)C(=O)NN(CC(=O)O)C(=O)[C@H]1O[C@@H]1C(=O)NCc1ccccc1 [23g (S,S)]
Reply: 1610

Task item: Also check CC(C)[C@H](NC(=O)CCc1ccccc1)C(=O)N[C@@H](C)C(=O)NN(CC(=O)O)C(=O)[C@H]1O[C@@H]1C(=O)NCCc1ccccc1 [23h (S,S)]
Reply: 1110
